biological target: UniProtKB Q8T6T2; test: Inhibition of recombinant Cryptosporidium parvum IMPDH assessed as production of NADH by fluorescence assay
Sequence (Q8T6T2 whole entry): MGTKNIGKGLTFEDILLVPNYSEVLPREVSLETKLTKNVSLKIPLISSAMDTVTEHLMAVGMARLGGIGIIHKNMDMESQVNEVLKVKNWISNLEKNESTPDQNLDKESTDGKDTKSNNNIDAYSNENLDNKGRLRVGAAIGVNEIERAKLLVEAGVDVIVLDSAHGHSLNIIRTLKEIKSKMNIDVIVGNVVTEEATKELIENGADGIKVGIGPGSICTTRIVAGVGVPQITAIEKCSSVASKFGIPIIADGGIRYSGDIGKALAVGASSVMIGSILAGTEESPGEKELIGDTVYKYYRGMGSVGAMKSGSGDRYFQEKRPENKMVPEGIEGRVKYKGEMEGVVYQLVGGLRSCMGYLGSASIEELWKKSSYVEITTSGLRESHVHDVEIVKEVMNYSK
value.type: IC50 (nM)

• Cn1nc(CC(=O)Nc2ccc(F)c(C(F)(F)F)c2)c2ccccc2c1=O = 150
• Cn1nc(CC(=O)Nc2ccc(C#N)c(C(F)(F)F)c2)c2ccccc2c1=O = 54
• Cn1nc(CC(=O)Nc2ccc(Br)cc2)c2ccccc2c1=O = 130
• Cn1nc(CC(=O)Nc2ccc(C#N)c(Cl)c2)c2ccccc2c1=O = 290
• COc1ccc(NC(=O)Cc2nn(C)c(=O)c3ccccc23)cc1 = 1000
• Cc1cc(NC(=O)Cc2nn(C)c(=O)c3ccccc23)ccc1C#N = 400
• Cn1nc(CC(=O)Nc2ccc(Cl)c(Cl)c2)c2ccccc2c1=O = 55
• Cc1cc(NC(=O)Cc2nn(C)c(=O)c3ccccc23)ccc1Br = 70
• Cn1nc(CC(=O)Nc2ccc3occc3c2)c2ccccc2c1=O = 93
• Cn1nc(CC(=O)Nc2ccc(C#N)cc2)c2ccccc2c1=O = 950
• Cn1nc(CC(=O)Nc2ccc(Br)cc2F)c2ccccc2c1=O = 1100
• Cn1nc(CC(=O)Nc2ccc(Br)c(C(F)(F)F)c2)c2ccccc2c1=O = 24
• Cn1nc(CC(=O)Nc2ccc(Cl)cc2)c2ccccc2c1=O = 230
• Cn1nc(CC(=O)Nc2ccc(Cl)c(C(F)(F)F)c2)c2ccccc2c1=O = 13
• Cn1nc(CC(=O)Nc2ccc(Cl)c(F)c2)c2ccccc2c1=O = 200
• Cn1nc(CC(=O)Nc2ccc(Br)c(Cl)c2)c2ccccc2c1=O = 30
• O=C(Cc1n[nH]c(=O)c2ccccc12)Nc1ccc(Br)c(C(F)(F)F)c1 = 32
• COc1cc(NC(=O)Cc2nn(C)c(=O)c3ccccc23)ccc1Cl = 33
• Cc1cc(NC(=O)Cc2nn(C)c(=O)c3ccccc23)ccc1Cl = 79

These measurements were taken from ChEMBL document CHEMBL2311526.
